Values from paper PMC6345774

Listed here: items and their measured m (m-value of TFE titration).
- methodNotes: TFE titrations monitored by CD (helical population)
- Format: physicochemical
- measurementParameters: CD at 222 nm, 5 °C, 50 mM phosphate pH 6.8, peptide 40 μM; two-state fit, ± fitting error

compound	m (m-value of TFE titration)
CC(=O)N[C@@H](CCC(=O)O)C(=O)N[C@@H](CCC(=O)O)C(=O)N[C@@H](Cc1ccccc1)C(=O)N[C@@H](CO)C(=O)N[C@@H](CC(=O)O)C(=O)N[C@@H](CC(C)C)C(=O)N[C@@H](Cc1c[nH]c2ccccc12)C(=O)N[C@@H](CCCCN)C(=O)N[C@@H](CC(C)C)C(=O)N[C@@H](CC(C)C)C(=O)N1CCC[C@H]1C(=O)N[C@@H](CCC(=O)O)C(=O)N[C@@H](CC(N)=O)C(N)=O [P53-E18]	103 ± 42 cal mol^−1(%)^−1

Continue with the compound presented below.
*Q* May I ask what m (m-value of TFE titration) has been recorded for CC(=O)N[C@@H](CCC(=O)O)C(=O)N[C@@H](CC(=O)O)C(=O)N[C@@H](Cc1ccccc1)C(=O)N[C@@H](CO)C(=O)N[C@@H](CC(=O)O)C(=O)N[C@@H](CC(C)C)C(=O)N[C@@H](Cc1c[nH]c2ccccc12)C(=O)N[C@@H](CCCCN)C(=O)N[C@@H](CC(C)C)C(=O)N[C@@H](CC(C)C)C(=O)N1CCC[C@H]1C(=O)N[C@@H](CCC(=O)O)C(=O)N[C@@H](CC(N)=O)C(N)=O [P53-D18] ?
*A* 383 ± 142 cal mol^−1(%)^−1
